- System: TNF-α induced IL-6
- experimentNotes: TNF-α-induced IL-6 production determined by IL-6 ELISA
- Format: cell-based
- experimentalConditions: Homo sapiens, 24 h; Table 5, first part; class = % of control IL6 production; read-out: Inhibition of TNF-induced IL6 production
- Method: Human aortic endothelial cells (HAEC, Clonetics) were cultured according to manufacturer in growth medium (Clonetics): basal medium containing human epidermal growth factor, hydrocortisone, vascular endothelial growth factor, heparin binding growth factor-B, long R3-insulin-like growth factor-1, ascorbic acid, gentamicin/amphotericin and 5% FBS. These cell were allowed to reach at least 90% confluency before subjected to experimental treatments. […] Tumor necrosis factor α was from R&D Systems. […]
readout: activity at 10 µM

compound: COc1ccc(Nc2nc(NCCN3CCCCC3)nc(NC3CCCCCC3)n2)cc1F
assayValue: 0 to 25%
//
compound: COc1ccc(Nc2nc(NC3CCCCCC3)nc(N3CCCC3)n2)cc1F
assayValue: 25 to 50%
//
compound: CCN1CCCC1CNc1nc(NCCN(C)C)nc(Nc2ccc(OC)c(F)c2)n1 (stereo not shown)
assayValue: 0 to 25%
//
compound: CCN1CCC[C@@H]1CNc1nc(NC2CCCCCC2)nc(N(CC#N)c2ccccc2)n1
assayValue: 0 to 25%

Reference source: patent US7332489B2
